- TESTED TARGET: TRKB-wt (Homo sapiens (Human), UniProt Q16620)
- Sequence (Q16620 538-807): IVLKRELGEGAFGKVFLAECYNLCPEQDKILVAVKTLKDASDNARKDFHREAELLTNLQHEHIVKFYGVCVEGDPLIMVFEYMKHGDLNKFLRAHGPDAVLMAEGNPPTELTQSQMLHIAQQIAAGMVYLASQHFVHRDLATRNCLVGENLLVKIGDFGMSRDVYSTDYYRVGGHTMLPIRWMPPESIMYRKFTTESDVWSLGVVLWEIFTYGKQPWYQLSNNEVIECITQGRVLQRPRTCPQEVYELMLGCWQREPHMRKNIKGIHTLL
- PROTOCOL SUMMARY: Biochemical kinase assay, TRKB-wt
- MEASUREMENT PARAMETERS: apparent inhibitory constant, kinase domain, Morrison equation; read-out: TRKB-wt Ki^app
pKi: −log10 of the molar value.
# reported pKi; entries follow

Past entries and their recorded results:
CHEMICAL STRING: C[C@H]1Oc2cc(cnc2N)-c2c(C#N)nn(C(=O)N(C)C)c2Cc2cccnc2-c2ccc(F)cc21
pKi: > 7.30
--
CHEMICAL STRING: CON(C)C(=O)c1nn(CC2CC2)c2c1Cc1cn(C)nc1-c1ccc(F)cc1[C@@H](C)Oc1cc-2cnc1N
pKi: 6.30 to 7.30
--
CHEMICAL STRING: C[C@H]1Oc2cc(cnc2N)-c2c(c(C(N)=O)nn2CC2CC2)Cc2cccnc2-c2ccc(F)cc21
pKi: 6.30 to 7.30
--
CHEMICAL STRING: CCn1nc(C(=O)N(C)C)c2c1-c1cnc(N)c(c1)O[C@H](C)c1cc(F)ccc1-c1ncccc1C2
pKi: > 7.30

Task: Lab note: need pKi for Cc1cc2n(n1)-c1ccc(F)cc1[C@@H](C)Oc1cc(cnc1N)-c1c(C#N)nn(C)c1C2=O on TRKB-wt (Homo sapiens (Human), UniProt Q16620), anyone have it?
Output: 6.30 to 7.30

Task: For TRKB-wt (Homo sapiens (Human), UniProt Q16620), provide pKi of C[C@H]1Oc2cc(cnc2N)-c2c(c(C(=O)N(C)C)nn2CC2CC2)Cc2cn(C)nc2-c2c(F)cc(F)cc21 please.
Output: ≤ 6.30

Task: Hi! What's the reported pKi for C[C@H]1Oc2cc(cnc2N)-c2c(c(C(=O)N3CC(F)(F)C3)nn2CC2CC2)Cc2cn(C)nc2-c2ccc(F)cc21 on TRKB-wt (Homo sapiens (Human), UniProt Q16620)?
Output: 6.30 to 7.30

---

- TESTED TARGET: Ba/F3 EML4-ALK v1 I1171N/D1203N (Homo sapiens (Human), UniProt Q9HC35+Q9UM73, D1203N/I1171N)
- Sequence (Q9UM73 other isoform, or with tags, fused parts or gaps I1171N/D1203N): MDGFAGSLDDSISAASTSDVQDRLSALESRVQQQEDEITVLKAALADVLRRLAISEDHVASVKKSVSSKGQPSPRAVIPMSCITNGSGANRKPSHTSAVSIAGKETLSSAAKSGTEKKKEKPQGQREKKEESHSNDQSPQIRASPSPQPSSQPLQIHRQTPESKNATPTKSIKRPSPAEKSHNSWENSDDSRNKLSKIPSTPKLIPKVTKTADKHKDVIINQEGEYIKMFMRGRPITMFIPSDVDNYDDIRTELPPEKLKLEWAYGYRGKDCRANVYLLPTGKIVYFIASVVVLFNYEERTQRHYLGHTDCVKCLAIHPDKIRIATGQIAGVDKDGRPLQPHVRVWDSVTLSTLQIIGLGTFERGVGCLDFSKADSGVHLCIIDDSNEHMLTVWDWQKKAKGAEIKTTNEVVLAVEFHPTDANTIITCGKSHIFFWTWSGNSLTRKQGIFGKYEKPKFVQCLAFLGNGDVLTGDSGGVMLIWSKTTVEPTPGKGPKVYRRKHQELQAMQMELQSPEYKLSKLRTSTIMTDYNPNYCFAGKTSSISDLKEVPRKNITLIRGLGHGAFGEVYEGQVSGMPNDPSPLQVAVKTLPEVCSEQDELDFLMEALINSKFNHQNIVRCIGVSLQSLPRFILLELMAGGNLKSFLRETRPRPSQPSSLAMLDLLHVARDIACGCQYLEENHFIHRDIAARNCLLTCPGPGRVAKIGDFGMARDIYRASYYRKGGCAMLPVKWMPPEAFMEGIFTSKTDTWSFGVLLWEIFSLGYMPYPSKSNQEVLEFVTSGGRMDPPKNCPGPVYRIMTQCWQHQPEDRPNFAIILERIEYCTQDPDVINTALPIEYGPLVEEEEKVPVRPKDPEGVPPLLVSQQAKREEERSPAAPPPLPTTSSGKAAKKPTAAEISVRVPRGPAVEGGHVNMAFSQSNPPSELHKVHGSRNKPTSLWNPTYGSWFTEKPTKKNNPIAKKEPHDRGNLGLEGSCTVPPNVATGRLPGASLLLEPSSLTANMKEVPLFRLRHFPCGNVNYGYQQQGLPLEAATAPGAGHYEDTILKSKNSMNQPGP
- PROTOCOL SUMMARY: Ba/F3 cell proliferation assay, EML4-ALK v1 I1171N/D1203N
- MEASUREMENT PARAMETERS: Ba/F3 stable cells, 72 hours, CellTiter-Glo
pIC50: −log10 of the molar value.
MEASURE: pIC50

CHEMICAL STRING: CCn1nc(C(=O)N(C)C)c2c1-c1cnc(N)c(c1)O[C@H](C)c1cc(F)ccc1-c1ncccc1C2
pIC50: 7.30 to 10.00

Task: What does the data say about its pIC50? Entry: CCn1nc(C#N)c2c1-c1cnc(N)c(c1)O[C@H](C)c1cc(F)ccc1-c1nn(C)cc1C2
Output: < 6.30

Task: Which value of pIC50 has been reported for CCn1nc2c(c1C#N)-c1cnc(N)c(c1)O[C@H](C)c1cc(F)ccc1-c1ncccc1C2=O in the records?
Output: 7.30 to 10.00

Task: Using the record for Cc1cc2n(n1)-c1ccc(F)cc1[C@@H](C)Oc1cc(cnc1N)-c1c(C#N)nn(C)c1C2=O , report its pIC50.
Output: 6.30 to 7.30

Task: Query (compound): C[C@H]1Oc2cc(cnc2N)-c2c(cnn2CC2CC2)C(=O)c2cccnc2-c2ccc(F)cc21 ; field requested: pIC50
Output: < 6.30

Task: Using the record for C[C@H]1Oc2cc(cnc2N)-c2c(C#N)nn(C)c2C(=O)c2cccnc2-c2ccc(F)cc21 , report its pIC50.
Output: 7.30 to 10.00

Task: Can you look up the measured pIC50 of C[C@H]1Oc2cc(cnc2N)-c2c(c(C(=O)N3CCC3)nn2CC2CC2)Cc2cn(C)nc2-c2ccc(F)cc21 for me?
Output: 6.30 to 7.30

Task: Using the record for CCOC(=O)c1nn(CC2CC2)c2c1Oc1cccnc1-c1ccc(F)cc1[C@@H](C)Oc1cc-2cnc1N , report its pIC50.
Output: 6.30 to 7.30

Task: I would be grateful if you could share the reported pIC50 for C[C@H]1Oc2cc(cnc2N)-c2c(c(C(=O)N(C)C)nn2CC2CCC2)Cc2cn(C)nc2-c2ccc(F)cc21 .
Output: 6.30 to 7.30

Task: For CCn1nc(C(N)=O)c2c1-c1cnc(N)c(c1)O[C@H](C)c1cc(F)ccc1-c1nn(C)cc1C2 , what is its reported pIC50?
Output: 6.30 to 7.30

Task: I would be grateful if you could share the reported pIC50 for CCc1nn(C(=O)N(C)C)c2c1-c1cnc(N)c(c1)O[C@H](C)c1cc(F)ccc1-c1ncccc1C2 .
Output: 7.30 to 10.00

Task: May I ask what pIC50 has been recorded for C[C@H]1Oc2cc(cnc2N)-c2c(CC3CC3)nc(C(=O)N(C)C)n2Cc2cn(C)nc2-c2ccc(F)cc21 ?
Output: 7.30 to 10.00

Task: Data request, read-out pIC50, for C[C@H]1Oc2cc(cnc2N)-c2c(c(C(=O)N3CCC(F)(F)C3)nn2CC2CC2)Cc2cn(C)nc2-c2ccc(F)cc21
Output: 6.30 to 7.30

Task: So what's the measured pIC50 for this one? C[C@H]1Oc2cc(cnc2N)-c2c(c(C(=O)N(C)C)nn2CC2CC2)Cc2cn(C)nc2-c2ccc(F)cc21
Output: 7.30 to 10.00

Task: // pIC50 lookup, key: C[C@H]1Oc2cc(cnc2N)-c2c(nn(C)c2C#N)Oc2cccnc2-c2ccc(F)cc21
Output: 7.30 to 10.00

---

The following compounds are shown together with reported pIC50 values.
- TESTED TARGET: Ba/F3 EML4-ALK v1 I1171N/D1203N (Homo sapiens (Human), UniProt Q9HC35+Q9UM73, D1203N/I1171N)
- PROTOCOL SUMMARY: Ba/F3 cell proliferation assay, EML4-ALK v1 I1171N/D1203N
- MEASUREMENT PARAMETERS: Ba/F3 stable cells, 72 hours, CellTiter-Glo
pIC50: −log10 of the molar value.

COMPOUND: C[C@H]1Oc2cc(cnc2N)-c2c(nn(C)c2CC2CC2)C(=O)c2cccnc2-c2ccc(F)cc21
READING: 7.30 to 10.00
--
COMPOUND: Cc1cc2n(n1)-c1ccc(F)cc1[C@@H](C)Oc1cc(cnc1N)-c1c(c(C(=O)N(C)C)nn1CC1CC1)C2
READING: 6.30 to 7.30
--
COMPOUND: C[C@H]1Oc2cc(cnc2N)-c2c(c(C(N)=O)nn2C2CCC2)Cc2cn(C)nc2-c2ccc(F)cc21
READING: 6.30 to 7.30
--
COMPOUND: Cc1nc2c(s1)Cc1c(c(C#N)nn1C(=O)N(C)C)-c1cnc(N)c(c1)O[C@H](C)c1cc(F)ccc1-2
READING: 6.30 to 7.30
--
COMPOUND: C[C@H]1Oc2cc(cnc2N)-c2c(C#N)nn(C(=O)N(C)C)c2Cc2cccnc2-c2ccc(F)cc21
READING: 7.30 to 10.00
--
COMPOUND: C[C@H]1Oc2cc(cnc2N)-c2c(c(C(=O)N(C)C)nn2CC2CC2)Cc2cn(C)nc2-c2c(F)cc(F)cc21
READING: 7.30 to 10.00
--
COMPOUND: CC1Oc2cc(cnc2N)-c2c(c(C#N)nn2CC2CC2)Cc2cn(C)nc2-c2c(F)cc(F)cc21 (stereo not drawn)
READING: < 6.30
--
COMPOUND: C[C@H]1Oc2cc(cnc2N)-c2c(c(C(=O)N(C)C)nn2C2CCC2)Cc2cccnc2-c2ccc(F)cc21
READING: 7.30 to 10.00

# next compound below
Task: Requested read-out: pIC50. Entry: C[C@H]1Oc2cc(cnc2N)-c2c(c(S(C)(=O)=O)nn2CC2CC2)Cc2cn(C)nc2-c2ccc(F)cc21
Output: 6.30 to 7.30

---

Documented IC50 across a set of compounds
- TESTED TARGET: Ba/F3 EML4-ALK v1 I1171N/D1203N (Homo sapiens (Human), UniProt Q9HC35+Q9UM73, D1203N/I1171N)
- PROTOCOL SUMMARY: Ba/F3 cell proliferation assay, EML4-ALK v1 I1171N/D1203N
- MEASUREMENT PARAMETERS: Ba/F3 stable cells, 72 hours, CellTiter-Glo

Previously resolved entries follow.
COMPOUND: C[C@H]1Oc2cc(cnc2N)-c2c(c(C(=O)N(C)CC(F)(F)F)nn2CC2CC2)Cc2cn(C)nc2-c2ccc(F)cc21
IC50: 50 to 500 nM
--
COMPOUND: C[C@H]1Oc2nc(cnc2N)-c2c(nn(C)c2C#N)C(=O)c2cccnc2-c2ccc(F)cc21
IC50: 0.1 to 50 nM
--
COMPOUND: Cc1nc2c(s1)C(=O)c1nn(C)c(C#N)c1-c1cnc(N)c(c1)O[C@H](C)c1cc(F)ccc1-2
IC50: 0.1 to 50 nM
--
COMPOUND: C[C@H]1Oc2nc(cnc2N)-c2c(nn(C)c2C#N)C(=O)c2cccnc2-c2c(F)cc(F)cc21
IC50: 0.1 to 50 nM
--
COMPOUND: C[C@H]1Oc2cc(cnc2N)-c2c(c([S+](C)[O-])nn2CC2CC2)Cc2cn(C)nc2-c2ccc(F)cc21 (stereo partly shown)
IC50: 50 to 500 nM
--
COMPOUND: C[C@H]1Oc2cc(cnc2N)-c2c(c(C(=O)N(C)C)nn2CC2CC2)Oc2cccnc2-c2ccc(F)cc21
IC50: 0.1 to 50 nM

Now, please, on to the next compound.
Task: Report IC50 for CCn1ncc2c1-c1cnc(N)c(c1)O[C@H](C)c1cc(F)ccc1-c1nn(C)cc1C2=O please.
Output: 50 to 500 nM
